We begin with a simple list: items and their reported Henry solubility constant Hcp.
test: Henry solubility constant Hcp at 298.15 K (mol/(m3 Pa)); conditions: reference: Fang et al. (2006)
Measured attribute: Henry solubility constant Hcp

INSERT INTO measurements (structure_notation, measured_attribute, observed) VALUES
  ('Clc1ccc(-c2ccc(Cl)c(Cl)c2Cl)cc1Cl', 'Henry solubility constant Hcp', 0.18),
  ('Clc1ccc(-c2cc(Cl)c(Cl)c(Cl)c2)cc1Cl', 'Henry solubility constant Hcp', 0.1),
  ('Clc1cc(-c2ccc(Cl)c(Cl)c2Cl)cc(Cl)c1Cl', 'Henry solubility constant Hcp', 0.06),
  ('Clc1ccc(-c2ccc(Cl)c(Cl)c2)cc1Cl', 'Henry solubility constant Hcp', 0.091),
  ('Clc1ccc(-c2cc(Cl)c(Cl)c(Cl)c2)c(Cl)c1', 'Henry solubility constant Hcp', 0.046),
  ('Clc1ccc(-c2cc(Cl)c(Cl)c(Cl)c2Cl)cc1Cl', 'Henry solubility constant Hcp', 0.068),
  ('Clc1cc(-c2cc(Cl)c(Cl)c(Cl)c2Cl)cc(Cl)c1Cl', 'Henry solubility constant Hcp', 0.084),
  ('Clc1cc(-c2cc(Cl)c(Cl)c(Cl)c2)cc(Cl)c1Cl', 'Henry solubility constant Hcp', 0.081),
  ('Clc1cc(Cl)c(-c2cc(Cl)c(Cl)c(Cl)c2)cc1Cl', 'Henry solubility constant Hcp', 0.078),
  ('Clc1ccc(-c2cc(Cl)c(Cl)c(Cl)c2)cc1', 'Henry solubility constant Hcp', 0.088),
  ('Clc1ccc(-c2cc(Cl)c(Cl)cc2Cl)cc1Cl', 'Henry solubility constant Hcp', 0.057);
